# assayed system: UniProtKB Q92633
# experiment summary: LPA1 functional antagonist assay (calcium flux)
# setup conditions: CHO cells overexpressing human LPA1; inhibition of calcium flux induced by 10 nM LPA; read-out: hLPA1 IC50
pIC50: −log10 of the molar value.
readout type: pIC50

CCc1cc(CC)nc(NCc2c(-c3ccc(O[C@H]4CCC[C@H](C(=O)O)C4)c(C)n3)nnn2C)n1 :: 6.99
CCCN(C)c1ccnc(NCc2c(-c3ccc(O[C@H]4CCC[C@H](C(=O)O)C4)c(C)n3)nnn2C)n1 :: 6.52
Cc1nc(-c2nnn(C)c2CNc2ccnc(OCC(C)(F)F)n2)ccc1O[C@H]1CCC[C@H](C(=O)O)C1 :: 7.19
Cc1nc(-c2nnn(C)c2Nc2cccc(Cc3ccccc3)n2)ccc1O[C@H]1CCC[C@H](C(=O)O)C1 :: 7.72

[P] Cc1nc(-c2nnn(C)c2COc2cc(-n3ccnn3)ncn2)ccc1O[C@H]1CCC[C@H](C(=O)O)C1
[Q] CCCCc1nc(C)nc(NCc2c(-c3ccc(O[C@H]4CCC[C@H](C(=O)O)C4)c(C)n3)nnn2C)n1
Incoming: Short answer wanted: higher pIC50, P or Q ? Mark your selection by writing its label.
Outgoing: Q
(Q: 7.21, P: 6.89)

[A] Cc1nc(-c2nnn(C)c2COc2nccc(C(C)(F)F)n2)ccc1O[C@H]1CCC[C@H](C(=O)O)C1
[B] [2H]C([2H])([2H])C([2H])(Oc1ccnc(NCc2c(-c3ccc(O[C@H]4CCC[C@H](C(=O)O)C4)c(C)n3)nnn2C)n1)C([2H])([2H])[2H]
[C] COCC(C)(C)c1ccnc(NCc2c(-c3ccc(O[C@H]4CCC[C@H](C(=O)O)C4)c(C)n3)nnn2C)n1
[D] Cc1nc(-c2nnn(C)c2COc2nccc(C3CC3)n2)ccc1O[C@H]1CCC[C@H](C(=O)O)C1
[E] COc1nc(NCc2c(-c3ccc(O[C@H]4CCC[C@H](C(=O)O)C4)c(C)n3)nnn2C)ncc1F
Incoming: // ascending sort on recorded pIC50 Form entry: labels listed in requested order.
Outgoing: C, E, B, A, D
(C: 6.41, E: 6.80, B: 7.39, A: 7.68, D: 8.12)

[a] COc1ccnc(NCc2c(-c3ccc(O[C@H]4CCC[C@H](C(=O)O)C4)c(C)n3)nnn2C)n1
[b] Cc1nc(-c2nnn(C)c2CNc2nccc(-c3cnccn3)n2)ccc1O[C@H]1CCC[C@H](C(=O)O)C1
[c] Cc1nc(-c2nnn(C)c2CCNc2nccc(C(C)C)n2)ccc1O[C@H]1CCC[C@H](C(=O)O)C1
Incoming: Put the items in sequence by pIC50, from largest down. # answer = labels listed in requested order
Outgoing: a, b, c
(a: 7.25, b: 7.04, c: 5.80)

---

# assayed system: human LPA1 (Homo sapiens)
# experiment summary: LPA1 functional antagonist assay (calcium flux)
# setup conditions: CHO cells overexpressing human LPA1; inhibition of calcium flux induced by 10 nM LPA; read-out: hLPA1 IC50
pIC50: −log10 of the molar value.
readout type: pIC50

Cc1nc(-c2nnn(C)c2CCNc2nccc(C(C)(C)C)n2)ccc1O[C@H]1CCC[C@H](C(=O)O)C1 [Example 400] :: 6.17
Cc1nc(-c2nnn(C)c2COc2cc(COC3CC3)ccn2)ccc1O[C@H]1CCC[C@H](C(=O)O)C1 [Example 323] :: 7.15
CCOc1cc(C2CCC2)nc(NCc2c(-c3ccc(O[C@H]4CCC[C@H](C(=O)O)C4)c(C)n3)nnn2C)n1 [Example 402] :: 7.44

[P] CCOc1ccnc(NCc2c(-c3ccc(O[C@H]4CCC[C@H](C(=O)O)C4)c(C)n3)nnn2C)n1 [Example 13]
[Q] Cc1nc(-c2nnn(C)c2CNc2nnc(Cl)cc2C2CC2)ccc1O[C@H]1CCC[C@H](C(=O)O)C1 [Example 216]
Incoming: Identify the item whose pIC50 is the smaller number: P or Q Refer to your chosen entry by its label in the reply.
Outgoing: Q
(Q: 6.42, P: 7.72)

[I] Cc1nc(-c2nnn(C)c2COc2cc(-c3ccc(F)cc3)ncn2)ccc1O[C@H]1CCC[C@H](C(=O)O)C1 [Example 313]
[II] Cc1nc(-c2nnn(C)c2COc2nccc(C(F)F)n2)ccc1O[C@H]1CCC[C@H](C(=O)O)C1 [Example 310]
Incoming: Among I and II , which shows a numerically higher pIC50 result? Your choice should be expressed through its label.
Outgoing: II
(II: 7.77, I: 7.39)

---

# assayed system: human LPA1 (Homo sapiens, UniProt Q92633)
# Sequence (Q92633 whole entry): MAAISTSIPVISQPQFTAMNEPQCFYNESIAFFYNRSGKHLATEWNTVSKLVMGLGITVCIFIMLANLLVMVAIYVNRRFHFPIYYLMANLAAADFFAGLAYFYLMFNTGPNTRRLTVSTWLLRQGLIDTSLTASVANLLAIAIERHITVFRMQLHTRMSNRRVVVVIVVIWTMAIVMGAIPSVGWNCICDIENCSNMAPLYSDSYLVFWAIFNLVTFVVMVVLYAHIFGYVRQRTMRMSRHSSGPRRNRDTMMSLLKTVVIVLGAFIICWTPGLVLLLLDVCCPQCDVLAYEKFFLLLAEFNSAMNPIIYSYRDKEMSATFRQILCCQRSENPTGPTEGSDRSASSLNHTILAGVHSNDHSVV
# experiment summary: LPA1 functional antagonist assay (calcium flux)
# setup conditions: CHO cells overexpressing human LPA1; inhibition of calcium flux induced by 10 nM LPA; read-out: hLPA1 IC50
pIC50: −log10 of the molar value. Structures can show the parent of a compound that is named as a salt.
readout type: pIC50

For orientation, consider the following solved cases.
COc1ccc(Oc2ccnc(NCc3c(-c4ccc(O[C@H]5CCC[C@H](C(=O)O)C5)c(C)n4)nnn3C)n2)cc1 :: 7.27
CCOc1cc(C)nc(NCc2c(-c3ccc(O[C@H]4CCC[C@H](C(=O)O)C4)c(C)n3)nnn2C)n1 :: 7.25
Cc1nc(-c2nnn(C)c2CNc2nccc(C(C)(C)CO)n2)ccc1O[C@H]1CCC[C@H](C(=O)O)C1 :: 6.07
CCCCc1cnnc(NCc2c(-c3ccc(O[C@H]4CCC[C@H](C(=O)O)C4)c(C)n3)nnn2C)c1 [Example 189, bis TFA salt] :: 6.97

[1] Cc1nc(-c2nnn(C)c2COc2nccc(C(C)C)n2)ccc1O[C@H]1CCC[C@H](C(=O)O)C1
[2] Cc1nc(-c2nnn(C)c2CNc2nccc(N3CCCC3)n2)ccc1O[C@H]1CCC[C@H](C(=O)O)C1
Incoming: Exercise: compare 1 and 2 ; which one has the greater pIC50? Answer = label.
Outgoing: 1
(1: 8.02, 2: 6.69)

---

# assayed system: human LPA1 (Homo sapiens)
# experiment summary: LPA1 functional antagonist assay (calcium flux)
# setup conditions: CHO cells overexpressing human LPA1; inhibition of calcium flux induced by 10 nM LPA; read-out: hLPA1 IC50
Structures can show the parent of a compound that is named as a salt.
readout type: IC50 (nM)

Look over these answered cases.
Cc1nc(-c2nnn(C)c2CNc2nnccc2OC2CCC2)ccc1O[C@H]1CCC[C@H](C(=O)O)C1 [Example 191, bis TFA Salt] :: 103
Cc1nc(-c2nnn(C)c2CNc2nccc(-c3ccccc3)n2)ccc1O[C@H]1CCC[C@H](C(=O)O)C1 :: 41
CCOc1ccnc(NCc2c(-c3nc(C)c(O[C@H]4CCC[C@H](C(=O)O)C4)cc3F)nnn2C)n1 :: 48

[I] COc1cccc(Oc2ccnc(NCc3c(-c4ccc(O[C@H]5CCC[C@H](C(=O)O)C5)c(C)n4)nnn3C)n2)c1
[II] Cc1nc(-c2nnn(C)c2CNc2ncc(F)c(NCC(C)C)n2)ccc1O[C@H]1CCC[C@H](C(=O)O)C1
Incoming: Please compare: I and II . Report which one has the smaller IC50 value. I would appreciate it if you answered with the label of your choice.
Outgoing: I
(I: 22 nM, II: 34 nM)

[1] [2H]C([2H])([2H])Oc1cc(OCc2c(-c3ccc(O[C@H]4CCC[C@H](C(=O)O)C4)c(C)n3)nnn2C)ncn1
[2] CCOc1cccc(OCc2c(-c3ccc(O[C@H]4CCC[C@H](C(=O)O)C4)c(C)n3)nnn2C)c1
[3] COCCCCOc1cc(OCc2c(-c3ccc(O[C@H]4CCC[C@H](C(=O)O)C4)c(C)n3)nnn2C)ncn1
[4] Cc1nc(-c2nnn(C)c2CNc2nccc(OC3CC3)n2)ccc1O[C@H]1CCC[C@H](C(=O)O)C1
[5] Cn1nnc(-c2ccc(O[C@H]3CCC[C@H](C(=O)O)C3)cn2)c1CNc1nccc(-c2ccccc2)n1
Incoming: Could you please sort these 5 entries by IC50 from high to low? Please respond by ranking the labels in the order requested.
Outgoing: 3, 2, 4, 1, 5

[a] Cc1nc(-c2nnn(C)c2COc2nccc(N3CCCC3)n2)ccc1O[C@H]1CCC[C@H](C(=O)O)C1
[b] [2H]C([2H])([2H])C([2H])([2H])Oc1ccnc(NCc2c(-c3ccc(O[C@H]4CCC[C@H](C(=O)O)C4)c(C)n3)nnn2C)n1
Incoming: Which shows the larger IC50 value: a or b ? // respond with label for picked entry
Outgoing: a
(a: 21 nM, b: 13 nM)

[1] Cc1nc(-c2nnn(C)c2Nc2cccc(C3CC3)n2)ccc1O[C@H]1CCC[C@H](C(=O)O)C1
[2] Cc1nc(-c2nnn(C)c2CNc2nccc(OCC(C)F)n2)ccc1O[C@H]1CCC[C@H](C(=O)O)C1 (stereo partly shown)
Incoming: For this pair, 1 and 2 , which shows a numerically higher IC50? Respond using the label that marks the chosen record.
Outgoing: 2
(2: 54 nM, 1: 21 nM)

[a] CCCOc1ccnc(NCc2c(-c3ccc(O[C@H]4CCC[C@H](C(=O)O)C4)c(CC)n3)nnn2C)n1
[b] Cc1nc(-c2nnn(C)c2CNc2nccc(Cc3ccccc3)n2)ccc1O[C@H]1CCC[C@H](C(=O)O)C1
Incoming: Please tell me which of the two, a or b , has the higher reported IC50 value. Please respond with the label that marks your chosen entry.
Outgoing: b

[P] Cc1nc(-c2nnn(C)c2CNc2ncnc(OC3CCC3)n2)ccc1O[C@H]1CCC[C@H](C(=O)O)C1
[Q] CCOc1cccc(Nc2c(-c3ccc(O[C@H]4CCC[C@H](C(=O)O)C4)c(C)n3)nnn2C)n1
Incoming: Between P and Q , which one has the lower reported IC50 value? Write down the label attached to your selection.
Outgoing: Q

[A] Cc1nc(-c2nnn(C)c2CNc2nccc(-c3ccccn3)n2)ccc1O[C@H]1CCC[C@H](C(=O)O)C1
[B] Cc1nc(-c2nnn(C)c2CNc2ccnc(C(C)C)n2)ccc1O[C@H]1CCC[C@H](C(=O)O)C1
Incoming: Look at A and B . Which one has the lower recorded IC50 number? Refer to your chosen item by its label in the answer.
Outgoing: A

[1] Cc1nc(-c2nnn(C)c2CNc2cc(-c3ccccc3)c(Cl)nn2)ccc1O[C@H]1CCC[C@H](C(=O)O)C1
[2] Cc1nc(-c2nnn(C)c2CNc2cc(C3CC3)ccn2)ccc1O[C@H]1CCC[C@H](C(=O)O)C1
Incoming: Returns: the label, 1 or 2 , whose recorded IC50 is the lower number. Answer with the label corresponding to your selection.
Outgoing: 2
(2: 16 nM, 1: 199 nM)

Data origin, for the record: patent US11267800B2
